Origin of measurements: patent US8017612B2

Let's look at some compounds and their measured pIC50.
measurement-target: HCV polymerase (NS5B) type 1b (Hepatitis C virus genotype 1b)
Construct: a region encoding NS5B (J Virol 1991 March, 65(3), 1105-13, 544 amino acids after deletion of 47 amino acids on the C-terminal); 6xHis (C); made in house; host or cells: Escherichia coli
protocol-description: Assay of enzyme (HCV polymerase) inhibitory activity, type 1b enzyme
Assay type: biochemical, HCV BK strain (type 1b)
condition-context: HCV polymerase inhibitory activity (IC50), 1b, type 1b enzyme 0.5 μg/ml, 25° C., 60 min
pIC50: −log10 of the molar value.
value-kind: pIC50

1. CC(C)c1ccc(CNC(=O)[C@H]2CN(C(=O)Cn3cccn3)CCN2S(=O)(=O)c2ccc(C(F)(F)F)cc2)cc1 [Example 228]
6.00 to 7.00
2. CCCc1ccc(CNC(=O)[C@H]2CN(C(=O)Nc3nc(CC(=O)N4CCOCC4)cs3)CCN2S(=O)(=O)c2ccc(OC(F)(F)F)cc2)cc1 [Example 475]
> 7.00
3. CC(C)(C)c1ccc(CNC(=O)[C@H]2CN(C(=O)Cc3ccncc3)CCN2S(=O)(=O)c2ccc(OC(F)(F)F)cc2)cc1 [Example 500]
> 7.00
4. CC(C)(C)c1ccc(CNC(=O)[C@H]2CN(c3nc4c(s3)C(=O)NC4=O)CCN2S(=O)(=O)c2ccc(OC(F)(F)F)cc2)cc1 [Example 573]
> 7.00
5. CC(C)c1ccc(CNC(=O)[C@H]2CN(c3cnc(C(=O)O)cn3)CCN2S(=O)(=O)c2ccc(C(F)(F)F)cc2)cc1 [Example 9]
> 7.00
6. CN1CCN(CC(=O)N2CCN(S(=O)(=O)c3ccc(I)cc3)[C@@H](C(=O)NCc3ccc(N(C)C)cc3)C2)CC1 [Example 346]
< 6.00

* * *

measurement-target: HCV polymerase (NS5B) type 1a (Hepatitis C virus genotype 1a, UniProt P26664)
Construct: made in house; host or cells: Escherichia coli (by the 'similar method' of the 1b enzyme)
protocol-description: Assay of enzyme (HCV polymerase) inhibitory activity, type 1a enzyme
Format: biochemical, HCV type 1a (cloned from the blood of patients)
condition-context: HCV polymerase inhibitory activity (IC50), 1a, type 1a enzyme 1.5 μg/ml, 25° C., 60 min
Method: The evaluation of the HCV polymerase inhibitory activity of the compound of the present invention is explained in the following. This polymerase is an enzyme coded for by the non-structural protein region called NS5B on the genome RNA of HCV. i) Preparation of Enzyme (HCV Polymerase) […] The HCV polymerase inhibitory activity (IC50) of the compound of the present invention was calculated from the values of radioactivity of the enzyme reaction with and without the test substance. […]
pIC50: −log10 of the molar value. Structures can show the parent of a compound that is named as a salt.
value-kind: pIC50

1. CCC(F)(F)c1ccc(CNC(=O)[C@H]2CN(C(=O)Nc3cc(C)on3)CCN2S(=O)(=O)c2ccc(OC(F)(F)F)cc2)cc1
6.00 to 7.00
2. CC(=O)N1CCN(S(=O)(=O)c2ccc(OC(F)(F)F)c(CCCC(=O)O)c2)[C@@H](C(=O)NCc2ccc(C(C)C)cc2)C1
> 7.00
3. CCCc1ccc(CNC(=O)[C@H]2CN(C(=O)Nc3nc(CC(=O)OCC)cs3)CCN2S(=O)(=O)c2ccc(OC(F)(F)F)cc2)cc1
6.00 to 7.00
4. CC(=O)N1CCN(S(=O)(=O)c2cc(C)cc(C)c2Oc2ccc(C#N)cc2)C(C(=O)NCc2ccc(C(F)(F)F)cc2)C1 (stereo not drawn)
< 6.00
5. CCCc1ccc(CNC(=O)[C@H]2CN(C(=O)Nc3nncs3)CCN2S(=O)(=O)c2ccc(OC(F)(F)F)cc2)cc1
> 7.00
6. CC(=O)N1CCN(S(=O)(=O)c2cnc(Cl)c(Br)c2)C(C(=O)NCc2ccc(C(F)(F)F)cc2)C1 (stereo not drawn) [Example 69, hydrochloride]
< 6.00
